Recorded values, source ChEMBL document CHEMBL4325889.

# System: NCI-H322M
# measurement_description: Growth inhibition of human NCI-H322M cells at 10 uM after 48 hrs by SRB assay relative to control
# Format: functional
# settings: read-out: GI
Reported values of inhibition of growth at 10 µM for individual entries
Express the result in % but write the number alone.

Completed entries (count: 5):
- smiles_code: "COc1cc2oc(-c3cccc(C(=O)Nc4ccc5c(c4)OCO5)c3)cc(=O)c2c(O)c1OC"
  assay_value: 19
- smiles_code: "COc1cccc(NC(=O)c2cccc(-c3cc(=O)c4c(O)c(OC)c(OC)cc4o3)c2)c1"
  assay_value: 12.9
- smiles_code: "COc1cc2oc(-c3cccc(C(=O)Nc4ccccc4)c3)cc(=O)c2c(O)c1OC"
  assay_value: 33.6
- smiles_code: "COc1cc(NC(=O)c2cccc(-c3cc(=O)c4c(O)c(OC)c(OC)cc4o3)c2)cc(OC)c1OC"
  assay_value: 25.6
- smiles_code: "COc1cccc(C(=O)Nc2cccc(-c3cc(=O)c4c(OC)c(OC)c(OC)cc4o3)c2)c1"
  assay_value: 27.1

Problem: Need inhibition of growth at 10 µM, item `COc1cccc(NC(=O)c2cccc(-c3cc(=O)c4c(OC)c(OC)c(OC)cc4o3)c2)c1`
Result: 19.9

Problem: Which measured inhibition of growth at 10 µM value corresponds to `COc1ccccc1NC(=O)c1cccc(-c2cc(=O)c3c(OC)c(OC)c(OC)cc3o2)c1` ?
Result: 18.9

Problem: Consider the compound shown here: `COc1ccccc1C(=O)Nc1cccc(-c2cc(=O)c3c(OC)c(OC)c(OC)cc3o2)c1` What is its recorded inhibition of growth at 10 µM?
Result: 56.4

Problem: What does the data say about its inhibition of growth at 10 µM? Entry: `COc1ccc(C(=O)Nc2cccc(-c3cc(=O)c4c(OC)c(OC)c(OC)cc4o3)c2)cc1`
Result: 44.9

Problem: I would be grateful if you could share the reported inhibition of growth at 10 µM for `COc1ccc(NC(=O)c2cccc(-c3cc(=O)c4c(O)c(OC)c(OC)cc4o3)c2)cc1` .
Result: 0.54

Problem: Name the recorded inhibition of growth at 10 µM for `COc1cc2oc(-c3cccc(C(=O)Nc4ccccc4)c3)cc(=O)c2c(OC)c1OC` .
Result: 17.7

Problem: // returns reported inhibition of growth at 10 µM for input `COc1cc(NC(=O)c2cccc(-c3cc(=O)c4c(OC)c(OC)c(OC)cc4o3)c2)cc(OC)c1OC`
Result: 30.5

Problem: Given the compound `COc1ccc(C(=O)Nc2cccc(-c3cc(=O)c4c(O)c(OC)c(OC)cc4o3)c2)cc1` , what is its reported inhibition of growth at 10 µM?
Result: 8.16

Problem: Suppose we examine the compound `COc1cc2oc(-c3cccc(NC(=O)c4ccc5c(c4)OCO5)c3)cc(=O)c2c(O)c1OC` ; what inhibition of growth at 10 µM value has been reported?
Result: 15.7
